system: B16F10-Cas9 cells pulsed with SIINFEKL peptide, co-cultured with OT-I T cells; assay: Genome-scale CRISPR-Cas9 screen, selection with OT-I T cells; assay type: cell-based, mouse; conditions: Table 3; B16F10-Cas9 cells pulsed with SIINFEKL, co-cultured with OT-I T cells 1:1 for one day; negative = depleted, positive = enriched
// OT1 (sgRNA Log(2) fold change, OT-I selection versus control T cells) lookup, one value per entry
Form: value (number only, do not type unit).

QUERY: # get_value(readout= OT1 (sgRNA Log(2) fold change, OT-I selection versus control T cells), system= B16F10-Cas9 cells pulsed with SIINFEKL peptide, co-cultured with OT-I T cells) for AGTTTGGAGCCCAGTAGGCA (chemistry not fully specified)
RESULT: -2.77

QUERY: What reported OT1 (sgRNA Log(2) fold change, OT-I selection versus control T cells) corresponds to TGGAATTATGGTCAAAGTAG (chemistry not fully specified) on B16F10-Cas9 cells pulsed with SIINFEKL peptide, co-cultured with OT-I T cells?
RESULT: -2.20

QUERY: Lookup: OT1 (sgRNA Log(2) fold change, OT-I selection versus control T cells) / B16F10-Cas9 cells pulsed with SIINFEKL peptide, co-cultured with OT-I T cells / CATGAGGTAGAATAGTTCGT (chemistry not fully specified)
RESULT: -0.65

QUERY: Requested read-out OT1 (sgRNA Log(2) fold change, OT-I selection versus control T cells), target or system B16F10-Cas9 cells pulsed with SIINFEKL peptide, co-cultured with OT-I T cells, entry GGAATCCCTGTGCTGATCGT (chemistry not fully specified)
RESULT: -2.76

QUERY: What value of OT1 (sgRNA Log(2) fold change, OT-I selection versus control T cells) on B16F10-Cas9 cells pulsed with SIINFEKL peptide, co-cultured with OT-I T cells does TCGGCTTCCCATTCTCCGGT (chemistry not fully specified) have?
RESULT: 5.48

QUERY: Hi! What's the reported OT1 (sgRNA Log(2) fold change, OT-I selection versus control T cells) for TTGTGCCTAAACAAAAAACA (chemistry not fully specified) on B16F10-Cas9 cells pulsed with SIINFEKL peptide, co-cultured with OT-I T cells?
RESULT: -2.52

QUERY: Give B16F10-Cas9 cells pulsed with SIINFEKL peptide, co-cultured with OT-I T cells OT1 (sgRNA Log(2) fold change, OT-I selection versus control T cells) for GAGATCTGCACATTCCGCAC (chemistry not fully specified)
RESULT: -2.69

QUERY: Lab note: need OT1 (sgRNA Log(2) fold change, OT-I selection versus control T cells) with B16F10-Cas9 cells pulsed with SIINFEKL peptide, co-cultured with OT-I T cells for entry ACTCGTACAGCTCCTGTGGT (chemistry not fully specified) , please look it up.
RESULT: 0.67
